- tested target: SAE (Homo sapiens (Human))
- Sequence (Q9UBT2 whole entry): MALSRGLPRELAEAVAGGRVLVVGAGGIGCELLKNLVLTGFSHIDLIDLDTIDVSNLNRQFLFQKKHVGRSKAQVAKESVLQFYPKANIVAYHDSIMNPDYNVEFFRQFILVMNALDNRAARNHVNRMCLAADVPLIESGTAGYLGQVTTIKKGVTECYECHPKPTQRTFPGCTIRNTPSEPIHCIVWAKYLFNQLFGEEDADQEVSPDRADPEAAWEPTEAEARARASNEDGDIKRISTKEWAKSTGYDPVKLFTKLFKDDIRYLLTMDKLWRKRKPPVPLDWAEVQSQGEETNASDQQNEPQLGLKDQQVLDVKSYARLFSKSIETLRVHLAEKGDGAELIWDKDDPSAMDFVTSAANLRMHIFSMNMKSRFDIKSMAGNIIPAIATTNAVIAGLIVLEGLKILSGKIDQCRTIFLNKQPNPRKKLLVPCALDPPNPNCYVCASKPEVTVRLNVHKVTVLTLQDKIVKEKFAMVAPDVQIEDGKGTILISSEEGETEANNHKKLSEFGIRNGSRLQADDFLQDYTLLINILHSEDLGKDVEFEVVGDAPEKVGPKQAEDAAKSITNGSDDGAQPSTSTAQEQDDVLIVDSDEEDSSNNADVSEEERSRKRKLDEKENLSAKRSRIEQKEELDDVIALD
- Sequence (Q9UBE0 whole entry partner): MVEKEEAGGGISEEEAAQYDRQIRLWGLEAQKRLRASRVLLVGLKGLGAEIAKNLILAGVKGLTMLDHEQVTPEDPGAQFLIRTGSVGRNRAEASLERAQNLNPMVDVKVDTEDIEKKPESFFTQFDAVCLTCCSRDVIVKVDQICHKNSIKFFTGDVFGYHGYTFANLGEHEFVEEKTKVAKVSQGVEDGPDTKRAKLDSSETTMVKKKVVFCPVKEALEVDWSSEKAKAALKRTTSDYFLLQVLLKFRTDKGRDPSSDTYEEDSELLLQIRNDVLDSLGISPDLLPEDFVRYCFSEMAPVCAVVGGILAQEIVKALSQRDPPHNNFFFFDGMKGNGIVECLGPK
- protocol: In vitro inhibitory activity assay against SAE (SUMO-2/3 immunofluorescence in HCT116 cells)
- Type: cell-based
- test conditions: 6 h incubation, class symbols, read-out: SUMO IF IC50
Listed here: items and their measured IC50.

Consider the following illustrative entries.
>>> test_result("NS(=O)(=O)OC[C@H]1C[C@@H](Nc2ncncc2C(=O)c2cc3c(s2)CCC32NCCc3ccc(C4CC4)cc32)C[C@@H]1O (stereo partly drawn) [Compound 65]")
"50 to 200 nM"
>>> test_result("NS(=O)(=O)OC[C@H]1C[C@@H](Nc2ncncc2C(=O)c2nc3c(s2)CSC[C@]32NCCc3ccc(Cl)cc32)C[C@@H]1O [Compound 129]")
"50 to 200 nM"

Shift focus to the following entry.
Give IC50 for NS(=O)(=O)OC[C@H]1C[C@@H](Nc2ncncc2C(=O)c2cc3c(s2)C(F)=C[C@@]32NCCc3ccc(Cl)cc32)C[C@@H]1O [Compound 155]
> 200 nM
